// reported hERG current change (%, negative = inhibition) at 10uM per item
- assayTarget: human ether-à-go-go-related gene (hERG) potassium channel (human);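 further: peak tail current of the secondary pulse compared with the same well before compound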
- Sequence (Q12809 whole entry, looked up): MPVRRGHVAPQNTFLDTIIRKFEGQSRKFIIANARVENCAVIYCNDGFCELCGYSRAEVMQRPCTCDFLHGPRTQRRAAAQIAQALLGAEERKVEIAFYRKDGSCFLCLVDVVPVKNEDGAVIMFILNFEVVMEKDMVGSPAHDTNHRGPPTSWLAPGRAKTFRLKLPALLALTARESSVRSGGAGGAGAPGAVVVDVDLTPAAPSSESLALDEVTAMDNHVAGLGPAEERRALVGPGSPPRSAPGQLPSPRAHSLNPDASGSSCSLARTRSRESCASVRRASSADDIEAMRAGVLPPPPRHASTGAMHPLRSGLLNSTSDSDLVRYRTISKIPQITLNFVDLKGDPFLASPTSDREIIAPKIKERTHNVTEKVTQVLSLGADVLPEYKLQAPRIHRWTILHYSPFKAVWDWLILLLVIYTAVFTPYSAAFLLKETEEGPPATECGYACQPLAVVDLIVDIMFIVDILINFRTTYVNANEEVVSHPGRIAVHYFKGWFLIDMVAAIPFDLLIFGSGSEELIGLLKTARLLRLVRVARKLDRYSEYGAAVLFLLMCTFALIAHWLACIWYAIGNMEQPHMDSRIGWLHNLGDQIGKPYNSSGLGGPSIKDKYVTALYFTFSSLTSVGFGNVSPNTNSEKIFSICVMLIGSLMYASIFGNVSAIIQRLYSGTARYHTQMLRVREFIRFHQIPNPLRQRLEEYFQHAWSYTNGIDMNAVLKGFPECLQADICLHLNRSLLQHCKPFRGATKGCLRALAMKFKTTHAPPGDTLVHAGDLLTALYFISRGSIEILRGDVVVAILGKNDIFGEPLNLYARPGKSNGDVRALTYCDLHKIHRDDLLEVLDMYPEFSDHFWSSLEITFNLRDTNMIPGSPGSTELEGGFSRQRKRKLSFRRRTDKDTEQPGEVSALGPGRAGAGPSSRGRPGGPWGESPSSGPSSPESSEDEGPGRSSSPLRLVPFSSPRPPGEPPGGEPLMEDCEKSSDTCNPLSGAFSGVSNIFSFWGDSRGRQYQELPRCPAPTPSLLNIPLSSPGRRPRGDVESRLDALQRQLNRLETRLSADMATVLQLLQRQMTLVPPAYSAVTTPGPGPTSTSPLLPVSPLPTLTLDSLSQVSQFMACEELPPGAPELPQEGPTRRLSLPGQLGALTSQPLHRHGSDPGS
- assayInfo: primary screen, population patch clamp on CHO cells stably expressing hERG; higher = less effect of the substance
Among all 310,000 compounds or so, about 14,000 (4.5%) showed an effect of 50% or more. Effects have a minus sign here. The full list was thinned out, with strong results kept by preference.
endpointName: hERG current change (%, negative = inhibition) at 10uM

{"columns": ["compound", "measurement"],
 "data": [
  ["COCCSc1ccccc1C(=O)Nc1ccccc1C(C)C", "3.89%"],
  ["O=C1CSC(c2ccccc2)N1c1ccc(F)cc1F (centres unmarked)", "4.37%"],
  ["Cc1ccc(C2C=C(c3ccccc3)Nc3ncnn32)cc1 (centres unmarked)", "-64.7%"],
  ["O=C(OCc1cc(Cl)ccc1OC(F)F)c1cncc(Br)c1", "5.33%"],
  ["COc1cccc(C2=CC(c3ccccc3)n3ncnc3N2)c1 (centres unmarked)", "-2.39%"],
  ["Cc1ccc(C2=CC(c3ccc(C)cc3)n3ncnc3N2)cc1 (centres unmarked)", "-17.6%"],
  ["CC(C)C(=O)NS(=O)(=O)c1ccc(N)cc1", "8.54%"],
  ["C1=C(c2ccccc2)Nc2ncnn2C1c1ccccc1 (centres unmarked)", "-5.26%"],
  ["CN(C)C(=O)COC(=O)[C@H](Cc1ccccc1)NC(=O)c1ccco1", "7.23%"],
  ["COc1ccc(C2C=C(c3ccccc3)Nc3ncnn32)cc1 (centres unmarked)", "-57.4%"],
  ["COc1cccc(C2=CC(c3ccc(N(C)C)cc3)n3ncnc3N2)c1 (centres unmarked)", "-1.72%"]
]}

* * *

- assayTarget: human ether-à-go-go-related gene (hERG) potassium channel (human);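 further: peak tail current of the secondary pulse compared with the same well before compound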
- assayInfo: primary screen, population patch clamp on CHO cells stably expressing hERG; higher = less effect of the substance
- Experimental: Briefly, Chinese hamster ovary (CHO) cells stably expressing the hERG channel were dislodged from tissue culture flasks and dispensed into PPC plates. […] During the recording, background leak currents were estimated by a 100 ms step to -80 mV from an initial holding potential of -70 mV and subtracted from the subsequent current measurement. The campaign was conducted in two phases using slight differences in recording protocol. […]
Screen size: about 310,000 compounds; about 14,000 (4.5%) showed an effect of 50% or more. The effect is printed as a negative number. Only a selection was taken, and strong results are over-represented in it overall.
endpointName: hERG current change (%, negative = inhibition) at 10uM (%)

{"columns": ["compound", "unitText", "measurement"],
 "data": [
  ["C/C(=N/NC(=O)c1ccncc1)c1ccc(NC(=O)c2ccccc2)cc1", "%", 7.92],
  ["CC1CCN(S(=O)(=O)c2ccc3[nH]c(=O)ccc3c2)CC1", "%", -5.5],
  ["COc1ccc(C2(C)NC(=O)N(CC(=O)Nc3ccc(S(=O)(=O)N4CCCC4)cc3)C2=O)cc1 (stereo not shown)", "%", -2.91],
  ["O=c1cc(CSc2ccccc2)nc(-c2ccccc2)[nH]1", "%", 6.19],
  ["O=C(Nc1ccccc1)c1ccc(Br)o1", "%", 3.15],
  ["CCC(=O)N1CCN(c2ccc(Cl)cc2NC(=O)Cc2ccccc2)CC1", "%", -46.3],
  ["O=c1oc2ccccc2c(O)c1C=Nc1cccnc1", "%", 12.2],
  ["CC(=O)N1CCN(c2ccccc2NC(=O)COc2ccc(Cl)cc2Cl)CC1", "%", -22.3],
  ["S=C1NC[C@H](CC2CCCCC2)N1CC1CCCCC1", "%", -8.59],
  ["CCN(Cc1ccc2c(c1)OCO2)C(=O)CSc1nc(C)nc2sc(C)c(C)c12", "%", -5.76],
  ["Cc1cccc(N2CCN(C(=O)Cn3cccc3)CC2)c1C", "%", 2.77],
  ["NC(=O)c1ccccc1NCC(=O)c1ccc(Cl)cc1", "%", 16.4],
  ["C/C(=N\\NC(=O)c1ccncc1)c1cccc(NC(=O)c2ccc(C(C)(C)C)cc2)c1", "%", -53.7],
  ["CC(C)C(=O)N1CCN(c2ccccc2NC(=O)COc2ccccc2)CC1", "%", -57.6],
  ["CCC(=O)N1CCN(c2ccc(Cl)cc2NC(=O)Cc2ccc(Cl)cc2)CC1", "%", -54.5],
  ["O=C(Cc1ccccc1)Nc1ccccc1N1CCN(c2ccccc2)CC1", "%", 11.9],
  ["COc1ccc(-n2c(SCC(=O)N3CCN(c4ccccc4)CC3)nc3c(c2=O)SCC3)cc1", "%", -70],
  ["CC(=O)N1CCN(c2ccccc2NC(=O)Cc2ccc(Cl)cc2)CC1", "%", -64.8],
  ["CCC(=O)N1CCN(c2ccccc2NC(=O)Cc2ccccc2)CC1", "%", -29.1],
  ["CNC(=S)NNC(=O)c1cccn(Cc2ccccc2)c1=O", "%", 19],
  ["O=C(c1ccccc1)c1cccc(NC(=O)c2ccc(Br)o2)c1", "%", -61.1],
  ["Cc1ccc(-n2c(SCC(=O)N3CCCC3)nc3c(c2=O)SCC3)cc1", "%", 5.3],
  ["CCC1CCCCN1S(=O)(=O)c1ccc2[nH]c(=O)ccc2c1 (stereo not shown)", "%", -60.1],
  ["CC(=O)c1cccc(NC(=O)c2ccc(Br)o2)c1", "%", -1.49],
  ["O=c1cc(CSc2ccc(Cl)cc2)nc(-c2ccncc2)[nH]1", "%", 1.72],
  ["CCCC(C)c1nc(C(N)=O)c2[nH]c(=O)n(-c3ccc(OC)c(OC)c3)c2n1 (stereo not shown)", "%", 12.6],
  ["Cc1ccccc1NC(=O)Cc1nc(COC(=O)c2ccc(Cl)c(S(N)(=O)=O)c2)cs1", "%", -60.9],
  ["C/C(=N/NC(=O)c1ccco1)c1cccc(NC(=O)c2ccc(C)o2)c1", "%", -45.4],
  ["COc1ccc(-n2c(SCC(=O)Nc3ccccc3)nc3c(c2=O)SCC3)cc1", "%", -18.7],
  ["NNc1nc2sc3c(c2c(=O)[nH]1)CCc1ccccc1-3", "%", 7.46],
  ["CCc1ccccc1NC(=S)N(CCN1CCCCC1)Cc1ccco1", "%", -46.7],
  ["C/C(=N\\NC(=O)c1cccc(F)c1)c1cccc(NC(=O)c2ccc(F)cc2)c1", "%", 13],
  ["COc1cccc(NC(=S)N(CCN2CCCCC2)Cc2ccco2)c1", "%", -43.9],
  ["COc1ccc(NC(=S)N(CCCN2CCCC2)Cc2ccco2)cc1", "%", -39.4],
  ["CCCCn1c(O)c(/C(C)=N/NC(=O)Nc2ccccc2)c(=O)[nH]c1=O", "%", 7.7],
  ["C/C(=N\\NC(=O)c1cccc(Br)c1)c1cccc(NC(=O)c2ccc(C)o2)c1", "%", -6.46],
  ["C/C(=N/NC(=O)c1ccc(Br)o1)c1cccc(NC(=O)c2ccc(C)o2)c1", "%", -67.6],
  ["Cc1ccccc1NC(=O)Cc1nc(COC(=O)c2cccc(O)c2)cs1", "%", -17.7],
  ["CCN(CC1COc2ccccc2O1)C(=S)NC1CC2CCC1C2 (stereo not shown)", "%", 1.34],
  ["O=C(Cn1cnc2c(nnn2Cc2ccccc2)c1=O)NCc1ccccc1Cl", "%", 5.76]
]}
